Biological target: Cdk2(H71C) (C177A) (Homo sapiens, UniProt P24941, C177A/H71C)
Construct: poly-histidine; made in house; host or cells: E. coli
Experiment: Kinetic thiol consumption assay with Cdk2 mutant H71C
Type: binding
Parameters: key: rate constant with Cdk2 ÷ rate constant with model thiol (fold)
Conditions: Cdk2 H71C, additional mutation C177A
Description: To wells containing 150 μL thiol (Cdk2 or model thiol) (5 μM) in degassed phosphate buffer (pH 8) was added immobilized TCEP beads (2% v/v). After incubation of the fluorescence plates for 1 hour at room temperature, fluorescence measurements (excitation/emission of 380/470 nm) were taken on a PerkinElmer EnVision multilabel plate reader and processed with EnVision Workstation version 1.12. Fluorescence measurements were normalized against a DMSO/thiol only control and plotted against time. […]
Quantity: Rate enhancement, Cdk2 H71C
Answers are plain numbers.

I would be grateful if you could provide Rate enhancement, Cdk2 H71C for each of the following entries.
1. C=CC(=O)Nc1cccc(C(F)(F)F)c1 [EL-1007]
2. C=CC(=O)N(c1ccc2c(c1)OCCO2)C1CC1
3. O=C(CCl)N1CCCCCC1
4. C=CC(=O)Nc1cccc(C(=O)c2ccccc2)c1
5. CC1CN(C(=O)CCl)CC(C)O1 (stereo not drawn)
6. C=CC(=O)N1CC(OCCN(CC)CC)C1

Solution:
0.2924
0.1567
0.08604
0.809
0.03607
0

Lab note: each molecule below needs its Rate enhancement, Cdk2 H71C filled in.
1. C=CC(=O)N1CCn2c(C(=O)NC3CC3)ccc2C1C (stereo not drawn)
2. C=CC(=O)N1CCC(c2nc3ccccc3[nH]2)CC1
3. C=CS(=O)(=O)c1ccccc1
4. FC(F)(F)c1cc(Cl)ncc1Br
5. C=CC(=O)N1CCCCCC1C/C=C/c1ccccc1 (stereo not drawn)

Solution:
1: 0.7334; 2: 0.6643; 3: 0.3485; 4: 0; 5: 0.8889

Problem: Quick one: Rate enhancement, Cdk2 H71C for C=CC(=O)N1CCn2c(Cc3ccccc3)nnc2C1 ?
Solution: 2.689
